experiment: Solubility of the free base of the compound of Formula I in solvents and mixed solvent systems; assay type: physicochemical; details: 25 °C, organic solvent or mixture, thermodynamic from solid; 80% DMSO in EtOH, room temperature; read-out: Solubility
measured.property: solubility (µg/mL)

{"columns": ["molecule", "measured.property", "recorded.result"],
 "data": [
  ["COc1ccc(CN2CCN(c3ccc(-c4cc(-c5cnn(C)c5)cn5ncc(C#N)c45)cn3)CC2)cn1 [freebase of the compound of Formula I]", "solubility", 4280]
]}

----------
assay: Primary salt screen of the compound of Formula II: XRPD post-cycling and post-stability (40° C., 75% RH overnight); assay type: physicochemical; details: compound of Formula II + the acid given as label; from EtOH/water (10%); 40° C. and 75% RH overnight

{"columns": ["compound", "XRPD post-stability"],
 "data": [
  ["CCS(=O)(=O)O", "No solid"],
  ["O=S(=O)(O)c1ccc2ccccc2c1", "Form 2"],
  ["CS(=O)(=O)O", "Amorphous"],
  ["Cl [Hydrochloric acid]", "Form 2"],
  ["O=S(=O)(O)CCS(=O)(=O)O", "No solid"],
  ["Cc1ccc(S(=O)(=O)O)cc1", "Amorphous"],
  ["O=S(=O)(O)c1ccccc1", "Form 2"],
  ["O=C(O)/C=C\\C(=O)O", "Amorphous"],
  ["O=S(=O)(O)O", "No solid"]
]}
